read-out: Cytochrome P450 3A4 (Homo sapiens); assay: CLD_CYP3A4_24hr: CellzDirect (CLD) Gene Expression Assay for xenobiotic metabolism (CYP3A4) at 24 hours (AID 2283689)
Results filed as inconclusive are left out. Activity calls are given as the source filed them. The calls were made as follows: active = hit-call score of the fitted dose curve at least 0.9, where 1 is the maximum; inconclusive = response in the unintended direction; inactive = score below 0.9.
Answer with one of the outcomes TRUE for active, FALSE for inactive

>>> class("O=C(O)CCCOc1ccc(Cl)cc1Cl")
"FALSE"

Exercise: # outcome recorded in this test, key = N#Cc1c(Cl)c(Cl)c(Cl)c(C#N)c1Cl
Key: FALSE

Exercise: What classification did Cc1cc(C)nc(NC(=O)NS(=O)(=O)c2ccccc2C(=O)OC2COC2)n1 end up with in this test?
Key: TRUE

Exercise: Which outcome was assigned to O=C(O)C(F)(F)C(F)(F)C(F)(F)C(F)(F)C(F)(F)C(F)(F)C(F)(F)F in this test?
Key: TRUE

Exercise: What did this assay record as the result for CNC(=O)/C=C(\C)OP(=O)(OC)OC ?
Key: FALSE

Exercise: Please state the recorded outcome for this molecule: CCOCN(C(=O)CCl)c1c(C)cccc1CC
Key: TRUE
